measured.on: human CCR8 (human, UniProt P51685 1-355)
assay.details: cell-based or functional assay
measurement.type: hCCL1 (100 nM) residual response, Protocol #2, mAb 10 µg/mL
Answer format: value, then unit.

Previously resolved entries follow.
binder: 3-28 (antibody, V domains shown) VH: EVQLQQSGPELLKPGTSVKISCTTSGYTFSDYTLHWVKQSHGKSLEWIGGITPKNGDTRYDPRFKDKATLTIDKSSSAAYMELRSLTSEDSAVYYCARVARFYGVSPYAMDYWGQGASVTVSS VL: DVVMTQTPLSLPVSLGDQASISCRCTQSLLHSNGDTYLHWYLQKPGQSPKLLIYKVSNRFSGVPDRFSGSGSGTDFTLEITRVEAEDLGVYFCSQTTHVPYTFGGGTKLEIK
result: 17%
--
binder: 3-46 (antibody, V domains shown) VH: EVQLVETGGGLVQPKGSLKLSCAASGFTFNTNAMNWVRQAPGKGLEWVARIRSKSNYYATYYADSVKDRFTISRDDSQSMLYLQMNNLKTEDTAMYYCVRGREMGNYYSMDYWGQGTSVTVSS VL: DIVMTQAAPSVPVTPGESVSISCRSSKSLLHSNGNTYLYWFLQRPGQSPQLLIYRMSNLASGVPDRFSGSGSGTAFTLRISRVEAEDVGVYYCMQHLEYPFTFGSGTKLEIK
result: 21%

Now for the binder whose hCCL1 (100 nM) residual response, Protocol #2, mAb 10 µg/mL we want.
Please indicate hCCL1 (100 nM) residual response, Protocol #2, mAb 10 µg/mL recorded for 3-5 (antibody, V domains shown) VH: EVQLLESGGGLVQPKGSLKLSCAASGFTFNPYAMNWVRQAPGRGLEWVARIRSKSNNYATYYADSVKDRFTISRDDSQDMLYLQMNNLKTEDTAMYYCVRGREAYYRYDGDYYAMDYWGQGTSVTVSS VL: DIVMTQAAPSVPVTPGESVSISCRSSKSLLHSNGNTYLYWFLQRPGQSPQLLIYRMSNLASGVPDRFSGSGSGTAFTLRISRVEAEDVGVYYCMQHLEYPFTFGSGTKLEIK
44%

From: patent US20260234276A1
